Origin of the recorded values: patent US11214803B2

System: Yap1 mRNA
protocol description: Dose-dependent inhibition of human Yap1 in A-431 cells (Example 7, 10,000 cells per well, RTS36584)
Format: cell-based
cond: Table 58, 4000.00 nM, free uptake, A-431 cells 10,000 cells per well, 48 hours
Strand notation (5' to 3'): a small letter for the sugar, then the base; units joined by * are phosphorothioate-linked, units joined directly phosphodiester-linked; [ ] holds rarer units or linkages, { } end groups; capitals alone tell only the bases. k = constrained ethyl (cEt); [5mC] = 5-methylcytosine; d = 2'-deoxy (DNA)
Classes based on Yap1 mRNA, % UTC: low = under 9 % UTC, mid = from 9 % UTC up to 20 % UTC, high = 20 % UTC and over

See these solved cases before continuing.
| substance | assay target | answer label |
| --- | --- | --- |
| 958757 (kG*kT*kG*dA*dT*d[5mC]*dT*dG*d[5mC]*dA*d[5mC]*dA*dT*kT*kG*kT; antisense) [compound 958757] | Yap1 mRNA | high |
| 958727 (kA*kT*k[5mC]*dT*dG*dT*d[5mC]*dA*dG*dT*dT*dA*dT*k[5mC]*k[5mC]*kT; antisense) [compound 958727] | Yap1 mRNA | low |
| 958587 (kG*kG*kT*dG*dA*d[5mC]*dT*dG*dA*dA*dA*d[5mC]*dT*k[5mC]*kT*kA; antisense) [compound 958587] | Yap1 mRNA | low |
| 958472 (kT*k[5mC]*k[5mC]*dT*dT*dA*dG*dA*dT*d[5mC]*d[5mC]*dT*dT*k[5mC]*kA*k[5mC]; antisense) [compound 958472] | Yap1 mRNA | high |

### Prompt Assign a bin to 958577 (kT*k[5mC]*kT*dG*dT*dG*dG*d[5mC]*dT*dA*d[5mC]*dT*dG*kG*k[5mC]*kA; antisense) [compound 958577]
### Response mid

### Prompt Assign a bin to 958542 (kT*kA*kT*dA*dG*dT*dA*dT*dT*d[5mC]*dT*dA*dT*k[5mC]*k[5mC]*kA; antisense) [compound 958542]
### Response mid

### Prompt Assign a bin to 958567 (kT*k[5mC]*kA*dA*d[5mC]*d[5mC]*dT*dA*dT*dG*dA*dA*d[5mC]*kT*kA*kT; antisense) [compound 958567]
### Response mid

### Prompt Assign a bin to 958527 (kG*kT*kA*dA*dG*dT*dA*dA*dG*dA*dA*d[5mC]*dA*kA*kT*k[5mC]; antisense) [compound 958527]
### Response mid

### Prompt Assign a bin to 958457 (antisense kG*kT*k[5mC]*dG*dA*dA*dG*dA*dT*dG*d[5mC]*dT*dG*kA*kG*k[5mC]) [compound 958457]
### Response mid

### Prompt Assign a bin to 958532 (kG*kA*kA*dG*dT*dA*dG*dG*dA*dG*d[5mC]*dA*dA*kG*kT*k[5mC]; antisense) [compound 958532]
### Response low

### Prompt Assign a bin to 715483 (k[5mC]*kT*k[5mC]*dT*dT*dT*dG*dG*dA*dA*dA*d[5mC]*d[5mC]*kA*kT*kT) [compound 715483]
### Response low
